# experiment_notes: Clearance in rat
# Assay type: ADME, organism-based
# setup_conditions: in vivo
result_type: clearance (mL/min/kg)
Express the result in mL/min/kg but write the number alone.

get_value(item= Cc1nn2c(O)cc(N3CCOCC3)nc2c1Cc1cccc(C(F)(F)F)c1C , readout=clearance) returns 6.5

====

# tested_on: Phosphatidylinositol 4,5-bisphosphate 3-kinase catalytic subunit alpha isoform (Homo sapiens, UniProt P42336)
# Sequence (P42336 whole entry, canonical isoform): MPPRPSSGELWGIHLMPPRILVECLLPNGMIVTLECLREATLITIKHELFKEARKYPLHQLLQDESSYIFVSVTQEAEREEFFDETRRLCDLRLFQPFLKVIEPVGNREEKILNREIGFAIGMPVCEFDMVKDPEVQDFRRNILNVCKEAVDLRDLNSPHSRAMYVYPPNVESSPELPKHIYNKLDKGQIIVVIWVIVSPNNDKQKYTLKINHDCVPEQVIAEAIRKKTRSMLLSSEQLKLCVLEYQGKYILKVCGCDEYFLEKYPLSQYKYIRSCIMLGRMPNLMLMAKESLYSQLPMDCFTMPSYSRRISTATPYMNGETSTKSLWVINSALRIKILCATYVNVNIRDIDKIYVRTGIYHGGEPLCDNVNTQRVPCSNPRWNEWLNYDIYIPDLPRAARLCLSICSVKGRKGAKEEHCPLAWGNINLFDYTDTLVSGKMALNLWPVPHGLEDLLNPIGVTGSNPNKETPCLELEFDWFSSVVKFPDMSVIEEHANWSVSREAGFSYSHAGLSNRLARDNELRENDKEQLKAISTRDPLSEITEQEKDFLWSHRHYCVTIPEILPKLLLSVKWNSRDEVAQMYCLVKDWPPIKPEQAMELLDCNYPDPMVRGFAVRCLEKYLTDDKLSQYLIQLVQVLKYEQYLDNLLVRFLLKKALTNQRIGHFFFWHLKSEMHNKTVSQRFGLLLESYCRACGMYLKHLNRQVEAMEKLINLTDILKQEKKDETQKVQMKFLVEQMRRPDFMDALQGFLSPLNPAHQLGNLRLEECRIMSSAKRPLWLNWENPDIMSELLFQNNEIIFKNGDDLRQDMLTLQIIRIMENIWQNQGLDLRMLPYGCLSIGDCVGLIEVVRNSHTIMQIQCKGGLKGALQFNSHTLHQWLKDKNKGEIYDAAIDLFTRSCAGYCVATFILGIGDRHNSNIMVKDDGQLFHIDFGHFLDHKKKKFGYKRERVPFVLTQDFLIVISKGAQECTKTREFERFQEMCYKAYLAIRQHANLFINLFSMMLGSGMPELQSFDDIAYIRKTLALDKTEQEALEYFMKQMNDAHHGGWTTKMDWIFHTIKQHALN
# experiment_notes: Inhibition of PI3Kalpha (unknown origin)
Measured IC50 values are reported for all entries that follow.
Express the result in nM but write the number alone.

Examples from the recorded data:
# molecule, IC50 (nM)
measured = [
    ("Cc1c(Cc2cnn3c(O)cc(N4CCOCC4)nc23)cccc1C(F)(F)F", 316),
    ("Cc1nn2c(O)cc(N3CCOCC3)nc2c1Cc1cccc2ccccc12", 316),
    ("Nc1nn2c(O)cc(C3CCOCC3)nc2c1Cc1cccc(Cl)c1Cl", 1580),
]

get_value(item= Oc1cc(C2CCOCC2)nc2c(Cc3cccc(Cl)c3Cl)c(C(F)(F)F)nn12 , readout=IC50) returns 2510

get_value(item= Oc1cc(N2CCOCC2)nc2c(Cc3cccc(Cl)c3Cl)c(C(F)(F)F)nn12 , readout=IC50) returns 200

get_value(item= Cc1nn2c(O)cc(N3CCOCC3=O)nc2c1Cc1cccc(C(F)(F)F)c1C , readout=IC50) returns 251

get_value(item= Cc1c(Cc2cnn3c(O)cc(-c4ccncc4)nc23)cccc1C(F)(F)F , readout=IC50) returns 501

get_value(item= Cc1nn2c(O)cc(N3CCOC(C)C3)nc2c1Cc1cccc(C(F)(F)F)c1C (stereo unspecified) , readout=IC50) returns 200

get_value(item= Cc1nn2c(C(=O)O)cc(N3CCOCC3)nc2c1Cc1cccc(C(F)(F)F)c1C , readout=IC50) returns 1580

get_value(item= Cc1nn2c(O)cc(N3CCOCC3)nc2c1Cc1cccc(C(F)(F)F)c1C , readout=IC50) returns 316

get_value(item= Oc1cc(-c2ccncc2)nc2c(Cc3cccc(Cl)c3Cl)c(C(F)(F)F)nn12 , readout=IC50) returns 631

====

# tested_on: Phosphatidylinositol 4,5-bisphosphate 3-kinase catalytic subunit beta isoform (Homo sapiens)
# Sequence (P42338 whole entry, canonical isoform): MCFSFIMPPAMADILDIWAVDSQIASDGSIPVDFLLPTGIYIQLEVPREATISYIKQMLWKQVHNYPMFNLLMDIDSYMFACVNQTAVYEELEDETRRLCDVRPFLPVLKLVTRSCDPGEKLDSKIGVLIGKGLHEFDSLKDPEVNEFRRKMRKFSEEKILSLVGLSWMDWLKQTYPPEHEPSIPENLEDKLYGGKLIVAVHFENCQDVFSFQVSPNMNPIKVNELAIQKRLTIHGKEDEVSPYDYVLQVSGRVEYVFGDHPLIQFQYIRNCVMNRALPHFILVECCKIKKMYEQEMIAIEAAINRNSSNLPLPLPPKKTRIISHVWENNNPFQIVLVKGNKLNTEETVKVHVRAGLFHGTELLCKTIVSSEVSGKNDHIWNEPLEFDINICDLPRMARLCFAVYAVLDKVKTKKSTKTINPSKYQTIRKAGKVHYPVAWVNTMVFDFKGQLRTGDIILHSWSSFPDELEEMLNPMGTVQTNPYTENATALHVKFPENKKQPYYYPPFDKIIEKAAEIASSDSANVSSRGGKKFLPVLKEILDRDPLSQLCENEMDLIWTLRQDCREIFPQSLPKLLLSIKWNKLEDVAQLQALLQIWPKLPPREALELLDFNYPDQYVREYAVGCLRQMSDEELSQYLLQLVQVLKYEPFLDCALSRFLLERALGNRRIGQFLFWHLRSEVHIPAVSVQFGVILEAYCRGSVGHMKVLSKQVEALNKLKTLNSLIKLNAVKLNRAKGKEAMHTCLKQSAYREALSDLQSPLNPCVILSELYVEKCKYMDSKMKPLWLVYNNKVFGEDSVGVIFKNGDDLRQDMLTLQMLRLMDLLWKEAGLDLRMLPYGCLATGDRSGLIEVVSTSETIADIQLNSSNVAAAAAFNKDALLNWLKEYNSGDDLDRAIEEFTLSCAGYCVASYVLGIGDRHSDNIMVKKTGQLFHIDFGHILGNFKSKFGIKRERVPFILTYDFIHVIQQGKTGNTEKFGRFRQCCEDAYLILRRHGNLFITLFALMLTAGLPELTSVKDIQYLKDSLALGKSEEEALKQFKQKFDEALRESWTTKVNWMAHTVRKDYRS
# experiment_notes: Inhibition of PI3Kbeta human in PTEN-null MDA-MB-468 cells assessed as reduction of AKT phosphorylation at Ser 473 in presence of serum
# Format: cell-based
Measured pEC50 values are reported for all entries that follow.
Conceptually, pEC50 converts a concentration in mol/L into minus its log10.

Examples from the recorded data:
# chemical_structure, pEC50
data = [
    ("Cc1nn2c(N)cc(N3CCOCC3)nc2c1Cc1cccc(C(F)(F)F)c1C", 6.00),
    ("Cc1c(Cc2cnn3c(O)cc(N4CCOCC4)nc23)cccc1C(F)(F)F", 6.00),
    ("Cc1nn2c(O)cc(N3CCOCC3)nc2c1Cc1cccc2ccccc12", 6.00),
    ("Oc1cc(N2CCOCC2)nc2c(Cc3cccc(Cl)c3Cl)c(C(F)(F)F)nn12", 5.30),
    ("Cc1nn2c(C(=O)O)cc(N3CCOCC3)nc2c1Cc1cccc(C(F)(F)F)c1C", 6.00),
]

get_value(item= Nc1nn2c(O)cc(C3CCOCC3)nc2c1Cc1cccc(Cl)c1Cl , readout=pEC50) returns 5.70

get_value(item= CCc1nn2c(O)cc(-c3ccncc3)nc2c1Cc1cccc(Cl)c1Cl , readout=pEC50) returns 4.70

get_value(item= Cc1c(Cn2c(C)nc(=O)c3sc(N4CCOCC4)nc32)cccc1C(F)(F)F , readout=pEC50) returns 7.80

get_value(item= Cc1nn2c(O)cc(C3CCOCC3)nc2c1Cc1cccc(C(F)(F)F)c1C , readout=pEC50) returns 5.00

get_value(item= COc1nn2c(O)cc(-c3ccncc3)nc2c1Cc1cccc(Cl)c1Cl , readout=pEC50) returns 4.90

get_value(item= Cc1c(Cc2cnn3c(O)cc(-c4ccncc4)nc23)cccc1C(F)(F)F , readout=pEC50) returns 5.50

get_value(item= Cc1nn2c(O)cc(N3CCOCC3)nc2c1Cc1cccc(C(F)(F)F)c1C , readout=pEC50) returns 5.80

====

# experiment_notes: Clearance in monkey
# Format: ADME, organism-based, Macaca mulatta
# setup_conditions: rhesus monkey, in vivo
result_type: clearance (mL/min/kg)
Express the result in mL/min/kg but write the number alone.

get_value(item= Cc1nn2c(O)cc(N3CCOCC3)nc2c1Cc1cccc(C(F)(F)F)c1C , readout=clearance) returns 0.33

====

# tested_on: Phosphatidylinositol 4,5-bisphosphate 3-kinase catalytic subunit delta isoform (Homo sapiens)
# Sequence (O00329 whole entry): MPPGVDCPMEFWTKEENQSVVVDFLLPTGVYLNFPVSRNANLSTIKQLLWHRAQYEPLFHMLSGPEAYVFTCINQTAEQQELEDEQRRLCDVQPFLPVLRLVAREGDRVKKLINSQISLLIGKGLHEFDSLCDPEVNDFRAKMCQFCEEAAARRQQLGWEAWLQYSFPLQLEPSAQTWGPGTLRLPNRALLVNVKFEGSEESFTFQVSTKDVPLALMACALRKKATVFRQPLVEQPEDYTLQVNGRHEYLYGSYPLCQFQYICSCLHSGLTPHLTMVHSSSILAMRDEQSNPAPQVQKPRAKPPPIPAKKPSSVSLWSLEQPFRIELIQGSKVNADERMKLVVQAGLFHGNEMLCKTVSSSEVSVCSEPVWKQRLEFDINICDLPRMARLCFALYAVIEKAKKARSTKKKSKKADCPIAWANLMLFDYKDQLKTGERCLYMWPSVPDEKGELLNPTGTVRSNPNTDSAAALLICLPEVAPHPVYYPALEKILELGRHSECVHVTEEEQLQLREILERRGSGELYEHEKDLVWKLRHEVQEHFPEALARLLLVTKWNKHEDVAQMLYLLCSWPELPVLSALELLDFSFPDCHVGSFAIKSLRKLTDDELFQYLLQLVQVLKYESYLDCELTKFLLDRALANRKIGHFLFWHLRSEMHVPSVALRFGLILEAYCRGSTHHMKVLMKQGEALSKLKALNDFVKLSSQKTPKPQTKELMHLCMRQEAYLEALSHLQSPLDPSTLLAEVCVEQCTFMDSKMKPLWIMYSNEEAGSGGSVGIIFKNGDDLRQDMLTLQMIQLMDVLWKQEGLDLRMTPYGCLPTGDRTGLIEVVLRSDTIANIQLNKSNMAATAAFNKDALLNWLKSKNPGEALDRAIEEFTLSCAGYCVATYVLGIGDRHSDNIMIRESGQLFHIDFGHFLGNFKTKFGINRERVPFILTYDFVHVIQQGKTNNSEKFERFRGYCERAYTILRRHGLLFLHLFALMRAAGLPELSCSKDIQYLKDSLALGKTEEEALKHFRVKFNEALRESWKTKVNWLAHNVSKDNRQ
# experiment_notes: Inhibition of PI3Kdelta (unknown origin)
pIC50: −log10 of the molar value.
So basically: pIC50 at 7 or higher? That is Met. Lower than 7? That is Not met.

These recorded examples may help you get a feel for the data.
# chemical_structure, classification
measured = [
    ("Oc1cc(N2CCOCC2)nc2c(Cc3cccc(Cl)c3Cl)c(C(F)(F)F)nn12", "Met"),
    ("Cc1nn2c(NO)cc(C3CCOCC3)nc2c1Cc1cccc(C(F)(F)F)c1C", "Not met"),
    ("CNc1cc(N2CCOCC2)nc2c(Cc3cccc(C(F)(F)F)c3C)c(C)nn12", "Not met"),
]

Ask | Record COc1cc(N2CCOCC2)nc2c(Cc3cccc(C(F)(F)F)c3C)cnn12 ; criterion: pIC50 no lower than 7. Met?
Reply | Not met

Ask | Record CCc1nn2c(O)cc(-c3ccncc3)nc2c1Cc1cccc(Cl)c1Cl ; criterion: pIC50 no lower than 7. Met?
Reply | Met

Ask | Record Cc1nn2c(C(=O)O)cc(N3CCOCC3)nc2c1Cc1cccc(C(F)(F)F)c1C ; criterion: pIC50 no lower than 7. Met?
Reply | Met

====

# tested_on: Phosphatidylinositol 4,5-bisphosphate 3-kinase catalytic subunit alpha isoform (Homo sapiens, UniProt P42336)
# experiment_notes: Inhibition of PI3Kalpha (unknown origin)
pIC50: −log10 of the molar value.
result_type: pIC50

Examples from the recorded data:
# chemical_structure, pIC50
records = [
    ("CCc1nn2c(O)cc(-c3ccncc3)nc2c1Cc1cccc(Cl)c1Cl", 6.80),
    ("COc1nn2c(O)cc(-c3ccncc3)nc2c1Cc1cccc(Cl)c1Cl", 6.80),
    ("Cc1c(Cc2c(=O)[nH]n3c(=O)cc(C4CCOCC4)[nH]c23)cccc1C(F)(F)F", "< 5.70"),
    ("Cc1nn2ccc(C3CCOCC3)nc2c1Cc1cccc(C(F)(F)F)c1C", "< 5.80"),
    ("Cc1nn2c(C#N)cc(N3CCOCC3)nc2c1Cc1cccc(C(F)(F)F)c1C", "< 6.00"),
]

Please examine the following record next.
get_value(item= Cc1nn2c(N)cc(N3CCOCC3)nc2c1Cc1cccc(C(F)(F)F)c1C , readout=pIC50) returns < 5.70
